assay: Pharmacokinetics in mice (intravenous and oral); assay type: in vivo; conditions: male, C57BL/6J, plasma; mouse, 10 mg/kg oral, 6 h; read-out: plasma level at 6 h postdosing
PROPERTY MEASURED: concentration at 6 h (nM)
Lab book: enter the figure in nM, no units written.

Query block: Please look up its concentration at 6 h: COc1ccc(Cc2cc([C@@H]3O[C@H](SC)[C@@H](O)[C@H](O)[C@H]3O)ccc2Cl)cc1
Result block: 617

----------
test: Pharmacokinetics in mice (intravenous and oral); format: in vivo; conditions: male, C57BL/6J, plasma; mouse, 10 mg/kg oral, 24 h; read-out: plasma level at 24 h post dosing
PROPERTY MEASURED: concentration at 24 h (nM)
API: value field is a number in nM; no unit string.

Query block: Reported concentration at 24 h, compound COc1ccc(Cc2cc([C@@H]3O[C@H](SC)[C@@H](O)[C@H](O)[C@H]3O)ccc2Cl)cc1 [LP-925219] : ____
Result block: 100

----------
target: rat SGLT2 (Rattus norvegicus, UniProt P53792); test: 14C-AMG uptake assay, cells expressing rat SGLT2; settings: mean ± SD
Sequence (P53792 whole entry): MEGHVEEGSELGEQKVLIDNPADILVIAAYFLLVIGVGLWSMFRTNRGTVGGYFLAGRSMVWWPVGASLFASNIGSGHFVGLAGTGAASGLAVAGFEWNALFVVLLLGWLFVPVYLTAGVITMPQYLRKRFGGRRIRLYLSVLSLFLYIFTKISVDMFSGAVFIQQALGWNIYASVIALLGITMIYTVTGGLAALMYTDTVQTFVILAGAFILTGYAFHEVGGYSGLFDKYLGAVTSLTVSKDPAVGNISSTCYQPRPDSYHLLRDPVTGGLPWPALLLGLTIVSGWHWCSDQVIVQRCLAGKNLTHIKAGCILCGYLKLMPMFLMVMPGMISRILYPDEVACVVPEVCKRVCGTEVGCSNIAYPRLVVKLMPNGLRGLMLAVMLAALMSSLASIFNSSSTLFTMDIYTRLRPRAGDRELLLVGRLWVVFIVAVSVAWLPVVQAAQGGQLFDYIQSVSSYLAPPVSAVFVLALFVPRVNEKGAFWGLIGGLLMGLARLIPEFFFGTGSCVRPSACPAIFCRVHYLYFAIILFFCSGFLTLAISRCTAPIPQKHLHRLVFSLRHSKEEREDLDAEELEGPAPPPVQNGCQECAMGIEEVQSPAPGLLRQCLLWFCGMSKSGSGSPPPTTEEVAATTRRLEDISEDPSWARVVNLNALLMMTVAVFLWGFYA
PROPERTY MEASURED: IC50 (nM)
Give a bare numeral; the unit nM is implied.

Query block: Suppose we examine the compound COc1ccc(Cc2cc([C@@H]3O[C@H](SC)[C@@H](O)[C@H](O)[C@H]3O)ccc2Cl)cc1 [LP-925219] ; what IC50 value has been reported?
Result block: 0.3

----------
test: Pharmacokinetics in mice (intravenous and oral); format: in vivo; conditions: male, C57BL/6J, plasma; mouse, 10 mg/kg oral vs 1 mg/kg intravenous; read-out: %F
PROPERTY MEASURED: bioavailability (%)
State just the number; it will be interpreted in %.

Query block: Looking for the measured bioavailability of COc1ccc(Cc2cc([C@@H]3O[C@H](SC)[C@@H](O)[C@H](O)[C@H]3O)ccc2Cl)cc1 [LP-925219] , can you help?
Result block: 87

----------
test: Pharmacokinetics in mice (intravenous and oral); assay type: in vivo; conditions: male, C57BL/6J, plasma; mouse, 10 mg/kg oral; read-out: bioavailability (%F)
PROPERTY MEASURED: bioavailability
# answer = value followed by unit

Query block: Need bioavailability of COc1ccc(Cc2cc([C@@H]3O[C@H](SC)[C@@H](O)[C@H](O)[C@H]3O)ccc2Cl)cc1 , thanks.
Result block: 87%

----------
molecular target: UniProtKB P13866; experiment: 14C-AMG uptake assay, HEK293 cells expressing human SGLT1; format: cell-based; parameters: expressed in transfected cells; conditions: mean ± SD
PROPERTY MEASURED: pIC50
pIC50 (log units): -log10 of the concentration in mol/L.

Query block: Entry COc1ccc(Cc2cc([C@@H]3O[C@H](SC)[C@@H](O)[C@H](O)[C@H]3O)ccc2Cl)cc1 [LP-925219] : reported pIC50 = ?
Result block: 7.80

----------
target: mouse SGLT1 (Mus musculus); assay: 14C-AMG uptake assay, HEK293 cells expressing mouse SGLT1; details: mean ± SD
Sequence (Q8C3K6 whole entry): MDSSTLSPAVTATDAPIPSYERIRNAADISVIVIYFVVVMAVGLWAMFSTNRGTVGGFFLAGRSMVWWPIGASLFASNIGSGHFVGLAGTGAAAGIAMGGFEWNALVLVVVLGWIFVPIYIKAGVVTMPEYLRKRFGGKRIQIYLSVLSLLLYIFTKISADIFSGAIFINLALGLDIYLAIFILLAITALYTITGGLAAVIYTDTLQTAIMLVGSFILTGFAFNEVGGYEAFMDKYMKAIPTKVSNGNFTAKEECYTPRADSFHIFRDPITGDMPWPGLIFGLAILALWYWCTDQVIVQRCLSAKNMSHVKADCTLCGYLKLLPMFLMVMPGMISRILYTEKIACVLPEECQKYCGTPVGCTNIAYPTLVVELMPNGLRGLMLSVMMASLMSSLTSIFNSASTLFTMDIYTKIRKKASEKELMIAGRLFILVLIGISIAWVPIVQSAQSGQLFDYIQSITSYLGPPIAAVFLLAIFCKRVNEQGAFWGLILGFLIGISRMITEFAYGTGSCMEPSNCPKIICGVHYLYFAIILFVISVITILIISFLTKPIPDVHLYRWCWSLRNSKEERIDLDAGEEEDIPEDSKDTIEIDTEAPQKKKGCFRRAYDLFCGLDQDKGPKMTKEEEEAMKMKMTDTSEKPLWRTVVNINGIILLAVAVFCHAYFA
PROPERTY MEASURED: pIC50
Lab note: report pIC50 as minus log10 of the concentration in molar units, number only.

Query block: Which pIC50 value belongs to COc1ccc(Cc2cc([C@@H]3O[C@H](SC)[C@@H](O)[C@H](O)[C@H]3O)ccc2Cl)cc1 ?
Result block: 7.65

----------
assay: Pharmacokinetics in mice (intravenous and oral); format: in vivo; details: male, C57BL/6J, plasma; mouse, 1 mg/kg intravenous
PROPERTY MEASURED: half-life (h)
// units = h; emit number, no label

Query block: Tell me the measured half-life of COc1ccc(Cc2cc([C@@H]3O[C@H](SC)[C@@H](O)[C@H](O)[C@H]3O)ccc2Cl)cc1 , please.
Result block: 2.8

----------
biological target: human SGLT1 (Homo sapiens, UniProt P13866); assay: Compound washout study, cells expressing human SGLT1; conditions: no wash protocol
Sequence (P13866 whole entry): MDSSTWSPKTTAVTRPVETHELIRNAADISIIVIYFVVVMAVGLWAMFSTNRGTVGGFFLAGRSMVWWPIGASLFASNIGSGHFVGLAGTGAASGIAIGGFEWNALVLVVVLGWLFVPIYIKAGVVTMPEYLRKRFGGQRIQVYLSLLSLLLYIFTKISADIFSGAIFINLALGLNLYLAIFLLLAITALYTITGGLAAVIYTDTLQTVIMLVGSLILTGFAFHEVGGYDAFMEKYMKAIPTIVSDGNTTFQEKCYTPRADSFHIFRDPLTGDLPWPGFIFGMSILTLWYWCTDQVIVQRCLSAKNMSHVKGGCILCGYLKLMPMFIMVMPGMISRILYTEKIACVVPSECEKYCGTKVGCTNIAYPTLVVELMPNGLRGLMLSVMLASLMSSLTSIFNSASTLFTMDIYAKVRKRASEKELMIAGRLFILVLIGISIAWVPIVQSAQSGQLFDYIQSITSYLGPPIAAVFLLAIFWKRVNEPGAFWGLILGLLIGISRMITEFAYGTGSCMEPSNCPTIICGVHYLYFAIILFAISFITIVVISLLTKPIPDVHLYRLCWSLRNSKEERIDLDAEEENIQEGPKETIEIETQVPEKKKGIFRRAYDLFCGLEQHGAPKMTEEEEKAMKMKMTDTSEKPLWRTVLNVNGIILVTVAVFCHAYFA
PROPERTY MEASURED: IC50 (nM)
Give a bare numeral; the unit nM is implied.

Query block: So what does the record say about IC50 for COc1ccc(Cc2cc([C@@H]3O[C@H](SC)[C@@H](O)[C@H](O)[C@H]3O)ccc2Cl)cc1 ?
Result block: 13

----------
assay: Pharmacokinetics in mice (intravenous and oral); assay type: in vivo; details: male, C57BL/6J, plasma; mouse, 1 mg/kg intravenous; read-out: Vss
PROPERTY MEASURED: Vd (L/kg)
Write the value in L/kg as a bare number.

Query block: Look at this molecule and give its reported Vd. COc1ccc(Cc2cc([C@@H]3O[C@H](SC)[C@@H](O)[C@H](O)[C@H]3O)ccc2Cl)cc1 [LP-925219]
Result block: 4.4

----------
molecular target: human SGLT2 (Homo sapiens); assay: Compound washout study, cells expressing human SGLT2; settings: washout protocol, 18-20 h recovery after 30 min treatment
Sequence (P31639 whole entry): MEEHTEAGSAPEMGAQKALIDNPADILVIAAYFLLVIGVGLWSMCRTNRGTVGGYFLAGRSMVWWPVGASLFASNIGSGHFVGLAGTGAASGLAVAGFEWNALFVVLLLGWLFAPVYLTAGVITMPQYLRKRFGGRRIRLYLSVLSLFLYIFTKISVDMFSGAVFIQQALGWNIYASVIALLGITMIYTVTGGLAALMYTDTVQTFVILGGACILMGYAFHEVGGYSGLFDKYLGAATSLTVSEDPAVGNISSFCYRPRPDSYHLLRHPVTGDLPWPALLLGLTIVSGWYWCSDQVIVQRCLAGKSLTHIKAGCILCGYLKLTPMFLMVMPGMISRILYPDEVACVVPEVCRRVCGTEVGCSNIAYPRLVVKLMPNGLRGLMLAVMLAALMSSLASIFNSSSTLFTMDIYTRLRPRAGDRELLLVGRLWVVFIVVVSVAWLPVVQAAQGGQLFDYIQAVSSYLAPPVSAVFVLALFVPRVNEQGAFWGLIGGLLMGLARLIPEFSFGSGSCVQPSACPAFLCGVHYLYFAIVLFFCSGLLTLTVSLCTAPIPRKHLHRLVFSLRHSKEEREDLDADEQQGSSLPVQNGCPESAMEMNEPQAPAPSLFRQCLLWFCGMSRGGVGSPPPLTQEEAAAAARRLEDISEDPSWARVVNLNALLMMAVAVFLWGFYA
PROPERTY MEASURED: IC50 (nM)
Numeric only. Scale: nM

Query block: Could you share what IC50 was measured for COc1ccc(Cc2cc([C@@H]3O[C@H](SC)[C@@H](O)[C@H](O)[C@H]3O)ccc2Cl)cc1 , tested on human SGLT2 (Homo sapiens)?
Result block: 6.8

----------
experiment: Pharmacokinetics in mice (intravenous and oral); format: in vivo; conditions: male, C57BL/6J, plasma; mouse, 1 mg/kg intravenous
PROPERTY MEASURED: AUC(0-inf) (µM·h)
Value expressed in µM·h; do not type the unit.

Query block: Entry COc1ccc(Cc2cc([C@@H]3O[C@H](SC)[C@@H](O)[C@H](O)[C@H]3O)ccc2Cl)cc1 has what AUC(0-inf)?
Result block: 1.41

----------
target: human SGLT1 (Homo sapiens); test: Compound washout study, cells expressing human SGLT1; conditions: washout protocol, 18-20 h recovery after 30 min treatment
PROPERTY MEASURED: pIC50
The value called pIC50 is obtained by taking minus log10 of the concentration in mol/L.

Query block: Form field - read-out: pIC50; system: human SGLT1 (Homo sapiens); submitted item: COc1ccc(Cc2cc([C@@H]3O[C@H](SC)[C@@H](O)[C@H](O)[C@H]3O)ccc2Cl)cc1 [LP-925219]
Result block: 5.88

----------
experiment: Pharmacokinetics in mice (intravenous and oral); format: in vivo; conditions: male, C57BL/6J, plasma; mouse, 1 mg/kg intravenous
PROPERTY MEASURED: clearance
Remember to put the unit after the number in your answer.

Query block: Quick one: clearance for COc1ccc(Cc2cc([C@@H]3O[C@H](SC)[C@@H](O)[C@H](O)[C@H]3O)ccc2Cl)cc1 ?
Result block: 29 mL/min/kg

----------
target: dog SGLT1 (Canis lupus familiaris, UniProt A0A8I3PYH5); assay: 14C-AMG uptake assay, cells expressing dog SGLT1; conditions: mean ± SD
Sequence (A0A8I3PYH5 1-662): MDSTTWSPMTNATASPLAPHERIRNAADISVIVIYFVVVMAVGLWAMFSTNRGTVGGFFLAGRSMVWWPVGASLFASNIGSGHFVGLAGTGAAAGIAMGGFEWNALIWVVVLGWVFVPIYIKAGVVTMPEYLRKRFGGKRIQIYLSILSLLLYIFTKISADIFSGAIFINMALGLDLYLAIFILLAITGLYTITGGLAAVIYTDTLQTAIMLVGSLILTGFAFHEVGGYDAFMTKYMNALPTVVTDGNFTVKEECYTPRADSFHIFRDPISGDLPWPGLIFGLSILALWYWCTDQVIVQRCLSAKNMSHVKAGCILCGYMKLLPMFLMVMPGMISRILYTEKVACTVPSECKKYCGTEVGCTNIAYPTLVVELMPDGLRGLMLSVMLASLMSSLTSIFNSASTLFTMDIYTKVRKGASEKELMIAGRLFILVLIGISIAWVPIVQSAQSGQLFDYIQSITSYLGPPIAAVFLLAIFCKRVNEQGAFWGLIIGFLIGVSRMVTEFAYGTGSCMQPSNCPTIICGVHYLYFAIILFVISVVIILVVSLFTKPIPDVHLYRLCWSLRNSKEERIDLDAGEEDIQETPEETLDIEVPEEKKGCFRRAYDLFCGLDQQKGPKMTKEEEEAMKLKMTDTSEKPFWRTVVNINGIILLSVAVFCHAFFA
PROPERTY MEASURED: IC50 (nM)
Could you give me the number in nM? Just the number is fine.

Query block: So what's the measured IC50 for this one? COc1ccc(Cc2cc([C@@H]3O[C@H](SC)[C@@H](O)[C@H](O)[C@H]3O)ccc2Cl)cc1
Result block: 30.2
